Test system: Escherichia coli K-12 strain
Experiment: MIC for Escherichia coli K-12 strain
Assay type: cell-based
Settings: Escherichia coli, K12STRAIN; K-12 strain; regular bouillon medium, 37° C. overnight, turbidity; read-out: MIC Escherichia coli K12
Quick reference: MIC of the listed items.
Give the value in mg/L but do not write mg/L after it.

Worked examples, 3 compounds total:
* O=C(NCC(=O)c1c(O)c2ccccc2oc1=O)c1ccccc1 [B013, 3-benzoylaminoacetyl-4-hydroxycoumarin] | 256
* CCCCCCCCCC(O)=C1C(=O)N(C(=O)Nc2ccc(Br)cc2)c2ccccc21 [A039] | 256
* CCCCCCCCCCOCC(O)=C1C(=O)N(C(=O)Nc2ccccc2)c2ccccc21 [A019] | 256

stdin: For the record CCCCC1CCC(C(=O)c2c(O)c3cc(F)ccc3oc2=O)CC1 (centres unmarked) [B009] , what value of MIC is listed for Escherichia coli K-12 strain?
stdout: 256

stdin: Find the measured MIC: item CCCCCCCCCCOCC(O)=C1C(=O)N(C(C)=O)c2ccccc21 [A013, N-acetyl-3-decyloxyacetyl-2-oxyindole] , target or system Escherichia coli K-12 strain.
stdout: 256

stdin: Missing value: MIC, Escherichia coli K-12 strain, entry CCCCCCCCOCC(O)=C1C(=O)N(C(C)=O)c2ccccc21 [A057, N-acetyl-3-octyloxyacetyl-2-oxyindole] . Fill in?
stdout: 128

stdin: For Escherichia coli K-12 strain, provide MIC of CCCCCCCCCCOCC(O)=C1C(=O)N(C(C)=O)c2cc(Cl)ccc21 [A017] please.
stdout: 128

stdin: Please state recorded MIC (tested on Escherichia coli K-12 strain) of CCCCCCCCCCOCC(O)=C1C(=O)N(C(=O)Nc2ccc(Br)cc2)c2ccccc21 [A038]
stdout: 128

stdin: Request - read-out MIC | tested on Escherichia coli K-12 strain | compound CCCCCCCCCC(O)=C1C(=O)N(C(=O)Nc2ccccc2C(F)(F)F)c2ccccc21 [A054]
stdout: 256

stdin: Test system Escherichia coli K-12 strain; read-out MIC; what value for CCCCCCCCCC(=O)N[C@@H](C)C(=O)c1c(O)c2ccccc2oc1=O [B011] ?
stdout: 256

stdin: Kindly state the measured MIC obtained for CCCCCCCCCC(O)=C1C(=O)N(C(=O)Nc2ccc(OC(F)(F)F)cc2)c2ccccc21 [A053] with Escherichia coli K-12 strain.
stdout: 128

stdin: Item CCCCCCCCCC(=O)N1C(=O)C(=C(O)c2ccc(Cl)cc2)c2ccccc21 [A060] with Escherichia coli K-12 strain - MIC?
stdout: 128

stdin: Give the reported MIC for CCCCCCCCCC(O)=C1C(=O)N(C(=O)Nc2ccc(OC)cc2)c2ccccc21 [A046] (system: Escherichia coli K-12 strain).
stdout: 256

stdin: Record lookup: for Escherichia coli K-12 strain, what MIC belongs to CCCCCCCCNC(=O)c1c(O)c2cc(F)ccc2oc1=O [B022] ?
stdout: 256

stdin: What measured MIC is associated with CCCCCCCCCC(=O)c1c(O)c2cc(F)ccc2oc1=O [B004, 3-decanoyl-6-fluoro-4-hydroxycoumarin] on Escherichia coli K-12 strain?
stdout: 256

stdin: Please state recorded MIC (tested on Escherichia coli K-12 strain) of CCCCCCCCCC(O)=C1C(=O)N(C(C)=O)c2ccc(Br)cc21 [A026, N-acetyl-5-bromo-3-decanoyl-2-oxyindole]
stdout: 128

stdin: Could you share what MIC was measured for CCCCCCCCCC(=O)c1c(O)c2cc(Cl)ccc2oc1=O [B003, 6-chloro-3-decanoyl-4-hydroxycoumarin] , tested on Escherichia coli K-12 strain?
stdout: 256
